This collection of values is drawn from patent US20240343803A1.

Readings of AUC % to SRF813-hIgG1 for the listed binders
system under test: T1, human PVRIG on FlpinCHO-PVRIG cells (human, UniProt Q6DKI7 41-326)
T1 construct: whole, on cells
T1 sequence (looked up): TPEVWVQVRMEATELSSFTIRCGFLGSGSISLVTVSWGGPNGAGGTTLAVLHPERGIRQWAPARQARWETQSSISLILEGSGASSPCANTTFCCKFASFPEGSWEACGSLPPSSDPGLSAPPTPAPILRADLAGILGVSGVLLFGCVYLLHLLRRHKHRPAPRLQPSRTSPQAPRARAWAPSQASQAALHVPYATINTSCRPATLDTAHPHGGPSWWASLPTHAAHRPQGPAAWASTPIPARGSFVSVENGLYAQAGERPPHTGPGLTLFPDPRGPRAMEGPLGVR
protocol details: FACS, FlpinCHO-PVRIG cells
Description: The Ham's F12 (Gibico, 21127-022) complete medium containing 10% FBS was then added to terminate the digestion and acquire cell suspension. […] After staining, the cells were washed twice with staining buffer, finally resuspended with 200 μL staining buffer and analyzed by flow cytometry (BD, Canto II). […] An antibody binding curve was drawn with concentration of antibodies as the abscissa and the corresponding Mean Fluorescence Intensity (MFI) as the ordinate. […]
Unit % implied. Number only.

## Input # AUC % to SRF813-hIgG1 lookup, item PVRIG-A50-H1b (Fc fusion, humanized variant of PVRIG-A50; also called A50.VH1b; not shown: constant part not restated for the humanized forms; parents are VHH-hinge-CH2-CH3 of human IgG1; detected by anti-human) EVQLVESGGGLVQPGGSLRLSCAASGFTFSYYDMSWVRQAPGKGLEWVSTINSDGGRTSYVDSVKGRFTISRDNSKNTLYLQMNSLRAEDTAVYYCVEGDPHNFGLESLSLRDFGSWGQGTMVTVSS
## Output 107

## Input Query: AUC % to SRF813-hIgG1; subject: PVRIG-A105-H3 (Fc fusion, humanized variant of PVRIG-A105; also called A105.VH3; not shown: constant part not restated for the humanized forms; parents are VHH-hinge-CH2-CH3 of human IgG1; detected by anti-human) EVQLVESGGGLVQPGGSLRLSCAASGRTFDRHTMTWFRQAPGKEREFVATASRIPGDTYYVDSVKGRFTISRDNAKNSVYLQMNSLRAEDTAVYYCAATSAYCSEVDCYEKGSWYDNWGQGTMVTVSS
## Output 189

## Input Look at this binder and give its reported AUC % to SRF813-hIgG1. PVRIG-A50-H1a (Fc fusion, humanized variant of PVRIG-A50; also called A50.VH1a; not shown: constant part not restated for the humanized forms; parents are VHH-hinge-CH2-CH3 of human IgG1; detected by anti-human) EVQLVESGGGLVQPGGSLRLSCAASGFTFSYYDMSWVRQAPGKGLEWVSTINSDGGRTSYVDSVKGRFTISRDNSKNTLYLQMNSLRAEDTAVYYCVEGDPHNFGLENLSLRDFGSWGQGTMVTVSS
## Output 125

Further cases:
## Input What value of AUC % to SRF813-hIgG1 has been recorded for this entry: PVRIG-A50-H1e (Fc fusion, humanized variant of PVRIG-A50; also called VH1e; not shown: constant part not restated for the humanized forms; parents are VHH-hinge-CH2-CH3 of human IgG1; detected by anti-human) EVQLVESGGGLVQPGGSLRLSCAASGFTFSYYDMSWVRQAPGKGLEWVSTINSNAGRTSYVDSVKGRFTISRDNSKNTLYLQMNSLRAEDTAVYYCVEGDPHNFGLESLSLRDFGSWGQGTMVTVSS
## Output 107

## Input I would be grateful if you could share the reported AUC % to SRF813-hIgG1 for PVRIG-A50-H1c (Fc fusion, humanized variant of PVRIG-A50; also called A50.VH1c; not shown: constant part not restated for the humanized forms; parents are VHH-hinge-CH2-CH3 of human IgG1; detected by anti-human) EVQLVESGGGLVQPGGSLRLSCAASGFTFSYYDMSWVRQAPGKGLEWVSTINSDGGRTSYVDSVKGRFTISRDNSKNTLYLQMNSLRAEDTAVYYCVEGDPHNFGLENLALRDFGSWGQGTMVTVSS .
## Output 122
